Values were extracted from BigSolDB 2.1.

# Applied Conditions: in methanol, 308.15 K
Readout Label: solubility (mole fraction)

# Chemical Smiles, Result
records = [
    ("O=[N+]([O-])N(CCO)CCO.O=[N+]([O-])O.O=[N+]([O-])O", 0.0166),
]

----------
# Applied Conditions: in ethyl acetate, 308.15 K
Readout Label: solubility (mole fraction)

# Chemical Smiles, Result
rows = [
    ("O=[N+]([O-])N(CCO)CCO.O=[N+]([O-])O.O=[N+]([O-])O", 0.334),
]

----------
# Applied Conditions: in 1,4-dioxane, 288.15 K
Readout Label: solubility (mole fraction)

# Chemical Smiles, Result
rows = [
    ("O=[N+]([O-])N(CCO)CCO.O=[N+]([O-])O.O=[N+]([O-])O", 0.245),
]

----------
# Applied Conditions: in 1,2-dichloroethane, 283.15 K
Readout Label: solubility (mole fraction)

# Chemical Smiles, Readout Label, Result
data = [
    ("O=[N+]([O-])N(CCO)CCO.O=[N+]([O-])O.O=[N+]([O-])O", "solubility (mole fraction)", 0.388),
]

----------
# Applied Conditions: in DMSO, 293.15 K

# Chemical Smiles, solubility (mole fraction)
data = [
    ("O=[N+]([O-])N(CCO)CCO.O=[N+]([O-])O.O=[N+]([O-])O", 0.0633),
]

----------
# Applied Conditions: in methanol, 303.15 K
Readout Label: solubility (mole fraction)

# Chemical Smiles, Result
records = [
    ("O=[N+]([O-])N(CCO)CCO.O=[N+]([O-])O.O=[N+]([O-])O", 0.0126),
]

----------
# Applied Conditions: in 1,2-dichloroethane, 303.15 K

# Chemical Smiles, solubility (mole fraction)
rows = [
    ("O=[N+]([O-])N(CCO)CCO.O=[N+]([O-])O.O=[N+]([O-])O", 0.641),
]

----------
# Applied Conditions: in ethanol, 283.15 K

# Chemical Smiles, solubility (mole fraction)
measured = [
    ("O=[N+]([O-])N(CCO)CCO.O=[N+]([O-])O.O=[N+]([O-])O", 0.00314),
]

----------
# Applied Conditions: in ethyl acetate, 288.15 K
Readout Label: solubility (mole fraction)

# Chemical Smiles, Result
data = [
    ("O=[N+]([O-])N(CCO)CCO.O=[N+]([O-])O.O=[N+]([O-])O", 0.17),
]

----------
# Applied Conditions: in dichloromethane, 313.15 K
Readout Label: solubility (mole fraction)

# Chemical Smiles, Result
data = [
    ("O=[N+]([O-])N(CCO)CCO.O=[N+]([O-])O.O=[N+]([O-])O", 0.515),
]

----------
# Applied Conditions: in toluene, 308.15 K

# Chemical Smiles, solubility (mole fraction)
records = [
    ("O=[N+]([O-])N(CCO)CCO.O=[N+]([O-])O.O=[N+]([O-])O", 0.032),
]

----------
# Applied Conditions: in acetonitrile, 283.15 K
Readout Label: solubility (mole fraction)

# Chemical Smiles, Result
records = [
    ("O=[N+]([O-])N(CCO)CCO.O=[N+]([O-])O.O=[N+]([O-])O", 0.182),
]

----------
# Applied Conditions: in acetonitrile, 293.15 K
Readout Label: solubility (mole fraction)

# Chemical Smiles, Result
records = [
    ("O=[N+]([O-])N(CCO)CCO.O=[N+]([O-])O.O=[N+]([O-])O", 0.314),
]

----------
# Applied Conditions: in 1,2-dichloroethane, 308.15 K
Readout Label: solubility (mole fraction)

# Chemical Smiles, Readout Label, Result
measured = [
    ("O=[N+]([O-])N(CCO)CCO.O=[N+]([O-])O.O=[N+]([O-])O", "solubility (mole fraction)", 0.704),
]

----------
# Applied Conditions: in acetone, 313.15 K

# Chemical Smiles, solubility (mole fraction)
measured = [
    ("O=[N+]([O-])N(CCO)CCO.O=[N+]([O-])O.O=[N+]([O-])O", 0.645),
]

----------
# Applied Conditions: in toluene, 298.15 K

# Chemical Smiles, solubility (mole fraction)
data = [
    ("O=[N+]([O-])N(CCO)CCO.O=[N+]([O-])O.O=[N+]([O-])O", 0.0252),
]

----------
# Applied Conditions: in acetonitrile, 298.15 K
Readout Label: solubility (mole fraction)

# Chemical Smiles, Result
measured = [
    ("O=[N+]([O-])N(CCO)CCO.O=[N+]([O-])O.O=[N+]([O-])O", 0.36),
]

----------
# Applied Conditions: in 1,2-dichloroethane, 293.15 K

# Chemical Smiles, solubility (mole fraction)
rows = [
    ("O=[N+]([O-])N(CCO)CCO.O=[N+]([O-])O.O=[N+]([O-])O", 0.524),
]

----------
# Applied Conditions: in ethyl acetate, 303.15 K
Readout Label: solubility (mole fraction)

# Chemical Smiles, Result
measured = [
    ("O=[N+]([O-])N(CCO)CCO.O=[N+]([O-])O.O=[N+]([O-])O", 0.31),
]

----------
# Applied Conditions: in dichloromethane, 293.15 K

# Chemical Smiles, solubility (mole fraction)
data = [
    ("O=[N+]([O-])N(CCO)CCO.O=[N+]([O-])O.O=[N+]([O-])O", 0.109),
]

----------
# Applied Conditions: in dichloromethane, 283.15 K
Readout Label: solubility (mole fraction)

# Chemical Smiles, Result
data = [
    ("O=[N+]([O-])N(CCO)CCO.O=[N+]([O-])O.O=[N+]([O-])O", 0.0359),
]

----------
# Applied Conditions: in 1,4-dioxane, 308.15 K

# Chemical Smiles, solubility (mole fraction)
records = [
    ("O=[N+]([O-])N(CCO)CCO.O=[N+]([O-])O.O=[N+]([O-])O", 0.488),
]

----------
# Applied Conditions: in toluene, 288.15 K

# Chemical Smiles, solubility (mole fraction)
data = [
    ("O=[N+]([O-])N(CCO)CCO.O=[N+]([O-])O.O=[N+]([O-])O", 0.0143),
]

----------
# Applied Conditions: in dichloromethane, 308.15 K
Readout Label: solubility (mole fraction)

# Chemical Smiles, Result
records = [
    ("O=[N+]([O-])N(CCO)CCO.O=[N+]([O-])O.O=[N+]([O-])O", 0.448),
]

----------
# Applied Conditions: in ethanol, 288.15 K

# Chemical Smiles, solubility (mole fraction)
records = [
    ("O=[N+]([O-])N(CCO)CCO.O=[N+]([O-])O.O=[N+]([O-])O", 0.00518),
]

----------
# Applied Conditions: in methanol, 288.15 K
Readout Label: solubility (mole fraction)

# Chemical Smiles, Result
records = [
    ("O=[N+]([O-])N(CCO)CCO.O=[N+]([O-])O.O=[N+]([O-])O", 0.00469),
]

----------
# Applied Conditions: in 1,4-dioxane, 298.15 K
Readout Label: solubility (mole fraction)

# Chemical Smiles, Result
rows = [
    ("O=[N+]([O-])N(CCO)CCO.O=[N+]([O-])O.O=[N+]([O-])O", 0.371),
]

----------
# Applied Conditions: in 1,2-dichloroethane, 288.15 K

# Chemical Smiles, solubility (mole fraction)
records = [
    ("O=[N+]([O-])N(CCO)CCO.O=[N+]([O-])O.O=[N+]([O-])O", 0.441),
]

----------
# Applied Conditions: in ethanol, 298.15 K

# Chemical Smiles, solubility (mole fraction)
measured = [
    ("O=[N+]([O-])N(CCO)CCO.O=[N+]([O-])O.O=[N+]([O-])O", 0.00986),
]

----------
# Applied Conditions: in toluene, 303.15 K

# Chemical Smiles, solubility (mole fraction)
records = [
    ("O=[N+]([O-])N(CCO)CCO.O=[N+]([O-])O.O=[N+]([O-])O", 0.0276),
]

----------
# Applied Conditions: in acetonitrile, 288.15 K

# Chemical Smiles, solubility (mole fraction)
data = [
    ("O=[N+]([O-])N(CCO)CCO.O=[N+]([O-])O.O=[N+]([O-])O", 0.258),
]

----------
# Applied Conditions: in DMSO, 298.15 K

# Chemical Smiles, solubility (mole fraction)
rows = [
    ("O=[N+]([O-])N(CCO)CCO.O=[N+]([O-])O.O=[N+]([O-])O", 0.0785),
]

----------
# Applied Conditions: in DMSO, 303.15 K

# Chemical Smiles, solubility (mole fraction)
measured = [
    ("O=[N+]([O-])N(CCO)CCO.O=[N+]([O-])O.O=[N+]([O-])O", 0.107),
]

----------
# Applied Conditions: in ethyl acetate, 313.15 K
Readout Label: solubility (mole fraction)

# Chemical Smiles, Readout Label, Result
records = [
    ("O=[N+]([O-])N(CCO)CCO.O=[N+]([O-])O.O=[N+]([O-])O", "solubility (mole fraction)", 0.362),
]

----------
# Applied Conditions: in DMSO, 288.15 K

# Chemical Smiles, solubility (mole fraction)
records = [
    ("O=[N+]([O-])N(CCO)CCO.O=[N+]([O-])O.O=[N+]([O-])O", 0.0506),
]
